Tested on: ICR mice
Test: Pulmonary toxicity (pulmonary fibrosis) in mice, intratracheal instillation
Assay type: in vivo
Conditions: 16 μg/50 μl/mouse intratracheally; sacrificed 4 weeks after instillation; score 0-6 points
Description: Male 15 weeks old ICR mice were used. Sixteen μg/50 μl/mouse of each test sample was intratracheally instilled. The mice were sacrificed 4 weeks after instillation to examine the incidence and grade of pulmonary fibrosis. The evaluation was made by comparing the number of administered mice suffering from pulmonary fibrosis and the grade of the disease. In Tables 4A and 4B, the grade was numerically rated as follows: […]
Readout kind: Grade: total score of pulmonary fibrosis/total number of samples

Cc1c(N)nc(C(CC(N)=O)NCC(N)C(N)=O)nc1C(=O)NC(C(=O)NC(C)C(O)C(C)C(=O)NC(C(=O)NCCc1nc(-c2nc(C(=O)NCCCN(C)CCCNC(C)c3ccc(Cl)cc3)cs2)cs1)C(C)O)C(OC1OC(CO)C(O)C(O)C1OC1OC(CO)C(O)C(OC(N)=O)C1O)c1cnc[nH]1 (centres unmarked) : 5/21

Qu. Determine reported Grade: total score of pulmonary fibrosis/total number of samples for Cc1c(N)nc(C(CC(N)=O)NCC(N)C(N)=O)nc1C(=O)NC(C(=O)NC(C)C(O)C(C)C(=O)NC(C(=O)NCCc1nc(-c2nc(C(=O)NCCCNCCCNC(C)c3ccccc3)cs2)cs1)C(C)O)C(OC1OC(CO)C(O)C(O)C1OC1OC(CO)C(O)C(OC(N)=O)C1O)c1cnc[nH]1 (centres unmarked) [PEPP, reference compound] ; test system: ICR mice.
Ans. 15/27

* * *

Would you kindly list Incidence of pulmonary fibrosis, % for each of these compounds?
Tested on: ICR strain mice
Assay: Pulmonary toxicity (pulmonary fibrosis) in mice, intraperitoneal injection
Format: in vivo
Details: 5 mg/kg i.p. once a day for 10 days; autopsy after 5 weeks
Be sure to follow the number with its unit.

Use the examples below as a reference point.
Cc1c(N)nc(C(CC(N)=O)NCC(N)C(N)=O)nc1C(=O)NC(C(=O)NC(C)C(O)C(C)C(=O)NC(C(=O)NCCc1nc(-c2nc(C(=O)NCCCN3CCN(CCCNCc4ccc(Cl)cc4)CC3)cs2)cs1)C(C)O)C(OC1OC(CO)C(O)C(O)C1OC1OC(CO)C(O)C(OC(N)=O)C1O)c1cnc[nH]1 (stereo not drawn) : 0%
Cc1c(N)nc(C(CC(N)=O)NCC(N)C(N)=O)nc1C(=O)NC(C(=O)NC(C)C(O)C(C)C(=O)NC(C(=O)NCCc1nc(-c2nc(C(=O)NCCCN(C)CCCNCC3CCCCCCCCCCCC3)cs2)cs1)C(C)O)C(OC1OC(CO)C(O)C(O)C1OC1OC(CO)C(O)C(OC(N)=O)C1O)c1cnc[nH]1 (stereo not drawn) : 0%

Qu. Give the reported value of Incidence of pulmonary fibrosis, % for this record: Cc1c(N)nc(C(CC(N)=O)NCC(N)C(N)=O)nc1C(=O)NC(C(=O)NC(C)C(O)C(C)C(=O)NC(C(=O)NCCc1nc(-c2nc(C(=O)NCCCN(C)CCCNCc3ccc(C#N)cc3)cs2)cs1)C(C)O)C(OC1OC(CO)C(O)C(O)C1OC1OC(CO)C(O)C(OC(N)=O)C1O)c1cnc[nH]1 (stereo not drawn)
Ans. 0%

* * *

Would you kindly list Grade: total score of pulmonary fibrosis/total number of test animal for each of these compounds?
Test system: ICR strain mice
Test: Pulmonary toxicity (pulmonary fibrosis) in mice, intraperitoneal injection
Type: in vivo
Conditions: 5 mg/kg i.p. once a day for 10 days; autopsy after 5 weeks; score 0-6 points

Use the examples below as a reference point.
Cc1c(N)nc(C(CC(N)=O)NCC(N)C(N)=O)nc1C(=O)NC(C(=O)NC(C)C(O)C(C)C(=O)NC(C(=O)NCCc1nc(-c2nc(C(=O)NCCC[N+](C)(C)CCC[N+](C)(C)CCCN(Cc3ccccc3)Cc3ccccc3)cs2)cs1)C(C)O)C(OC1OC(CO)C(O)C(O)C1OC1OC(CO)C(O)C(OC(N)=O)C1O)c1cnc[nH]1 (stereo not drawn) : 0/27
Cc1c(N)nc(C(CC(N)=O)NCC(N)C(N)=O)nc1C(=O)NC(C(=O)NC(C)C(O)C(C)C(=O)NC(C(=O)NCCc1nc(-c2nc(C(=O)NCCCN(C)CCCN(Cc3ccc(OCc4ccc(Cl)cc4)c(OCc4ccc(Cl)cc4)c3)Cc3ccc(OCc4ccc(Cl)cc4)c(OCc4ccc(Cl)cc4)c3)cs2)cs1)C(C)O)C(OC1OC(CO)C(O)C(O)C1OC1OC(CO)C(O)C(OC(N)=O)C1O)c1cnc[nH]1 (stereo not drawn) : 0/27

Give one value of Grade: total score of pulmonary fibrosis/total number of test animal per listed compound.
1. Cc1c(N)nc(C(CC(N)=O)NCC(N)C(N)=O)nc1C(=O)NC(C(=O)NC(C)C(O)C(C)C(=O)NC(C(=O)NCCc1nc(-c2nc(C(=O)NCCCN(C)CCCN(Cc3cc(OCc4ccccc4)c(OCc4ccccc4)c(OCc4ccccc4)c3)Cc3cc(OCc4ccccc4)c(OCc4ccccc4)c(OCc4ccccc4)c3)cs2)cs1)C(C)O)C(OC1OC(CO)C(O)C(O)C1OC1OC(CO)C(O)C(OC(N)=O)C1O)c1cnc[nH]1 (stereo not drawn)
2. Cc1c(N)nc(C(CC(N)=O)NCC(N)C(N)=O)nc1C(=O)NC(C(=O)NC(C)C(O)C(C)C(=O)NC(C(=O)NCCc1nc(-c2nc(C(=O)NCCCN(C)CCCN(Cc3ccccc3)Cc3ccccc3)cs2)cs1)C(C)O)C(OC1OC(CO)C(O)C(O)C1OC1OC(CO)C(O)C(OC(N)=O)C1O)c1cnc[nH]1 (stereo not drawn)

Ans.
0/27
1/15

Give one value of Grade: total score of pulmonary fibrosis/total number of test animal per listed compound.
1. Cc1c(N)nc(C(CC(N)=O)NCC(N)C(N)=O)nc1C(=O)NC(C(=O)NC(C)C(O)C(C)C(=O)NC(C(=O)NCCc1nc(-c2nc(C(=O)NCCCN(C)CCCN(Cc3ccc(OCc4ccc(Cl)c(Cl)c4)c(OCc4ccc(Cl)c(Cl)c4)c3)Cc3ccc(OCc4ccc(Cl)c(Cl)c4)c(OCc4ccc(Cl)c(Cl)c4)c3)cs2)cs1)C(C)O)C(OC1OC(CO)C(O)C(O)C1OC1OC(CO)C(O)C(OC(N)=O)C1O)c1cnc[nH]1 (stereo not drawn)
2. Cc1c(N)nc(C(CC(N)=O)NCC(N)C(N)=O)nc1C(=O)NC(C(=O)NC(C)C(O)C(C)C(=O)NC(C(=O)NCCc1nc(-c2nc(C(=O)NCCC[N+](C)(C)CCCN(Cc3ccccc3)Cc3ccccc3)cs2)cs1)C(C)O)C(OC1OC(CO)C(O)C(O)C1OC1OC(CO)C(O)C(OC(N)=O)C1O)c1cnc[nH]1 (stereo not drawn)

Ans.
1. 0/27
2. 0/27

Values compiled from patent US4568490A.
